Recorded % Reduction, Secondary Antiviral Agent Alone, one value per entry.
# Tested on: Bacteriophage Phi X174 (ATCC 13706-81)
# assay-overview: Virucidal infectivity (percent reduction in virus infectivity, E. coli outgrowth with resazurin dye);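 also: exposed phage diluted into broth, E. coli outgrowth followed 16-24 h at 37 °C by fluorescence rate, unexposed phage set as 100% signal, phage-free as 0%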
# condition: agent alone 6 mM; 10-minute exposure
Counter-ions that a name gives are not always drawn.
metric: % Reduction, Secondary Antiviral Agent Alone

| compound | target-under-test | result |
| --- | --- | --- |
| N=C(N)NN [Aminoguanidine Hydrochloride] | Bacteriophage Phi X174 (ATCC 13706-81) | 2% |
| CCCCCCCCCC[N+](C)(C)[O-] [Mackamine C-10, Decylamina oxide] | Bacteriophage Phi X174 (ATCC 13706-81) | 7% |
| [Cl-].[Cl-].[Zn+2] [Zinc Chloride] | Bacteriophage Phi X174 (ATCC 13706-81) | 0% |
| N=C(N)N [Guanidine Hydrochloride] | Bacteriophage Phi X174 (ATCC 13706-81) | 0% |
